tested on: HCC-2998 colon; test: NCI-60 one-dose screen, 48 h; settings: 10 µM unless noted
The panel holds about 83,000 compounds, 20% with a hit somewhere; the sample as a whole holds those more often. Activity calls are given as the source filed them. Rule for the calls: active = growth percent below 10; inactive = the rest.
Returns: one label drawn from 1.0 = active, 0.0 = inactive

Answer briefly: the call reported for `O=C(CN1C(=O)/C(=C/c2ccccc2F)SC1=S)N1CCOCC1` in this assay.
0.0

// outcome(item) with item = `CC(C)CSc1nc(NCCc2c[nH]c3ccccc23)c(C#N)c(-c2ccc(Cl)cc2)n1`
0.0

How was `O=C(NN1C(=O)/C(=C/C=C/c2ccc([N+](=O)[O-])o2)SC1=S)c1ccc(Cl)cc1` classified in this test?
1.0

GET /call?item= `NS(=O)(=O)c1ccc(N=Nc2c(O)n(CC(=O)Nc3ccccc3)c3ccccc23)cc1` returns the recorded outcome of this test.
0.0

Returns: the outcome recorded for `COc1ccc(-c2cc(C(=O)NCc3ccccc3)nn2-c2ccc(S(C)(=O)=O)cc2)cc1OC` in this assay.
0.0

Which result was noted for this compound in the test: `COc1cc(-c2ccc(/C=N/NC(=O)c3[nH]c4ccc(Br)cc4c3-c3ccccc3)o2)cc(OC)c1OC`
0.0

Can you look up the reported call for `O=C(N/N=C/c1ccc(-c2ccc(O)cc2)s1)c1[nH]c2ccc(Br)cc2c1-c1ccccc1` for me?
1.0

Outcome logged for CC1(C)CC[C@]2(C(=O)O)CC[C@]3(C)C(=CCC4[C@@]5(C)C[C@@H](O)[C@@H]6OC(c7ccccc7F)OC[C@@]6(C)C5CC[C@]43C)C2C1 (some centres not stated) in this assay:
0.0

Kindly provide the recorded test outcome for the following compound: CC(=O)/C=C/c1cccc2c1C(=O)NC(C)(c1cc3cc(Br)ccc3oc1=O)N2 (configuration not stated)
0.0

Any idea what this test logged for `Cc1cc2nc3c4ccccc4n(CC4=NCCN4)c3nc2cc1C` ?
1.0

Give the logged outcome of this assay for the following compound: `N#Cc1c(-c2ccc(Br)cc2)nc2n[nH]c(-c3ccc(Br)cc3)c2c1-c1ccc(C(F)(F)F)cc1`
0.0

Short answer needed: outcome of this test for `CCOC(=O)c1ccc(Nc2nc(NN)nc(-c3ccc(OC)cc3)c2C#N)cc1` ?
0.0

Please state the recorded outcome for this compound: `CN(C)c1nc(NCCNS(=O)(=O)c2ccc(C(=O)/C=C/c3ccc(C(F)(F)F)cc3)cc2)nc(Nc2ccc(F)cc2)n1`
1.0

Write down the call the test reported for this compound. Item: Cc1nc(Nc2ccccn2)sc1C(=O)CC(SCC(=O)Nc1ccc(Cl)cc1)c1ccccc1F (configuration not stated)
0.0

Please indicate how the test categorized C=C1CC[C@@H]2[C@]3(C)COC(c4cn[nH]c4-c4cccc(Cl)c4)O[C@@H]3CC[C@@]2(C)[C@@H]1C/C=C1/C(=O)OCC1O (some centres not stated) .
1.0

In this assay, the call recorded for O=c1oc2ccccc2cc1-c1csc(N2N=C(c3ccccc3)CC2c2ccc(N3CCOCC3)cc2)n1 (configuration not stated) was what?
0.0

Please state the recorded outcome for this compound: COc1cc2c(c(OC)c1OC)C(=O)CC(c1cccc(NC(=O)c3cc(N)ccc3Cl)c1)O2 (configuration not stated)
0.0
